# target: human IDO1 protein (Homo sapiens)
# Construct: purchased ChemPartner Lot; No. 20160706
# Sequence (P14902 whole entry): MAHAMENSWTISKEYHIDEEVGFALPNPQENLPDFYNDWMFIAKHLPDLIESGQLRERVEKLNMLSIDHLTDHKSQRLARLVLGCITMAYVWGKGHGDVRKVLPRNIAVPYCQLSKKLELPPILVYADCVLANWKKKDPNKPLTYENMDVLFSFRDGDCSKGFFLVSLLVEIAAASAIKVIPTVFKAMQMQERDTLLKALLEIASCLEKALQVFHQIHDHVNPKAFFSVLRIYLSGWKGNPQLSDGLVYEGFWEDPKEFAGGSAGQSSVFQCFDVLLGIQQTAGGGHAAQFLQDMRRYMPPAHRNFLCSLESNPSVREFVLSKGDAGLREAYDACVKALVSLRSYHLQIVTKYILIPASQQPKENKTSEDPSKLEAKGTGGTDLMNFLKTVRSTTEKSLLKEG
# experimentSummary: Enzymatic IDO1 assay (Absorbance 321 assay)
# Assay type: biochemical
# appliedConditions: 50 uM, average inhibition, Table S2
Listing: Avg_Inh (%) @ 50uM of selected molecules
Answer with a number only, understood to be in %.

Sample answers from the record:
> print(dat)
                                   molecule         readoutname  unitslabel  measurednumber
1   O=c1/c(=C/c2c(O)ccc3ccccc23)sc2n1CCCN=2  Avg_Inh (%) @ 50uM           %           64.05
2  c1ccc(CNCC2OCCc3ccccc32)cc1 (centres unmarked)  Avg_Inh (%) @ 50uM           %           -0.96
3            O=c1[nH]c(CN2CCOCC2)nc2ccccc12  Avg_Inh (%) @ 50uM           %           -6.95

*Q* Please state recorded Avg_Inh (%) @ 50uM (tested on human IDO1 protein (Homo sapiens)) of Cc1ccccc1C(=O)Oc1ccc2ccc(O)cc2c1
*A* 43.35

*Q* Look up Avg_Inh (%) @ 50uM with human IDO1 protein (Homo sapiens) for this molecule: Cc1ccc(C(C)C)cc1C(=O)CC1(O)C(=O)N(C)c2ccc(Br)cc21 (centres unmarked)
*A* 28.34

Every entry's value here was drawn from paper PMC5884943.
